// compounds with Kd on Dual specificity protein kinase CLK1 (Homo sapiens, UniProt P49759), multi-source literature
Sequence (P49759 whole entry): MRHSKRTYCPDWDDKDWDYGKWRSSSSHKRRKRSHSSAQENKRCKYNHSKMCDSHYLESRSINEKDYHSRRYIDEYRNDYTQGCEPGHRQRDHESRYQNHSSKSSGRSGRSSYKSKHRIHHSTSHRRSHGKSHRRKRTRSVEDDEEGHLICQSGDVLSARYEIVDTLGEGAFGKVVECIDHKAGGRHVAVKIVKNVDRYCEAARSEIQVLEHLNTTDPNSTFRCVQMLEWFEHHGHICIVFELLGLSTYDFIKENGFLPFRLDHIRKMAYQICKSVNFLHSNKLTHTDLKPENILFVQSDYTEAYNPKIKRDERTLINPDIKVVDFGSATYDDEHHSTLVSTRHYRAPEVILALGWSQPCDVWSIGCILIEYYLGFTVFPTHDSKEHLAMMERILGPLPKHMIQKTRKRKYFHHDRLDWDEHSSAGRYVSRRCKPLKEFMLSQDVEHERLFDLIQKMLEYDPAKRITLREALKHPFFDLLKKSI
Observed property: Kd (nM)

[[record]]
compound = "Cc1n[nH]c2ccc(-c3nnc4n3[C@H](c3ccc(Cl)cc3)CC4)cc12"
observed_property = "Kd"
number = 15

[[record]]
compound = "COc1ccc2c3ccnc(Cl)c3n(CC#N)c2c1"
observed_property = "Kd"
number = 8.7

[[record]]
compound = "Cn1cc(C2=C(c3cccc(NCC(O)CO)c3)C(=O)NC2=O)c2cc(F)ccc21 (racemic)"
observed_property = "Kd"
number = 16

